Reference source for all entries: patent US8653087B2

Property: IC50; scope: individual molecules
Target: B-Raf (V600E)-kinase (Homo sapiens (Human), UniProt P15056, V600E)
Sequence (P15056 whole entry V600E): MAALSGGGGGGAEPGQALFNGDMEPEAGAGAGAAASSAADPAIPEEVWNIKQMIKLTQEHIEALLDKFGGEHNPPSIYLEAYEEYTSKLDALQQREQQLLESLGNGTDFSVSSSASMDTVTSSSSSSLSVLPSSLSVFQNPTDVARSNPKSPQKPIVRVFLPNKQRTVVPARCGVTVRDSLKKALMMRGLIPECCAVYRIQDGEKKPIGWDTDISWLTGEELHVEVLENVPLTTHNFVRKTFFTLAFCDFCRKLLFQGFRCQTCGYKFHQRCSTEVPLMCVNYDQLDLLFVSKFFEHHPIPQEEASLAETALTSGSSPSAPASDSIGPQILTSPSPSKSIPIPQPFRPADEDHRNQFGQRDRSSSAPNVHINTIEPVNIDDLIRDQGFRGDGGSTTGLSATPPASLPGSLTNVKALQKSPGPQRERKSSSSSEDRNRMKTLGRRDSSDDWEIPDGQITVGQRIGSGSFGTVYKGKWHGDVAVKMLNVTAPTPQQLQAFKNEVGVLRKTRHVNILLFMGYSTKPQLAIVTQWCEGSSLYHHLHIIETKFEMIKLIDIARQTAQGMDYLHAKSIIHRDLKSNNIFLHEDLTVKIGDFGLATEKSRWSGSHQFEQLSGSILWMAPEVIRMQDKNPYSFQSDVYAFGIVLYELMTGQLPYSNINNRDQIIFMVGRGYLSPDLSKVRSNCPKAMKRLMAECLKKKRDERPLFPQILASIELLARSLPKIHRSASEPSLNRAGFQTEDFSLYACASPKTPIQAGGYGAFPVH
Experiment: Kinase test B-RAF (V600E)
Format: biochemical
Details: B-RAF (V600E) kinase test, 250 μM ATP
Write down the numeric answer in nM and omit the unit.

# count of solved cases: 5
Cc1ccc(C(=O)Nc2ccc(C#N)c(C(F)(F)F)c2)cc1Nc1ncnc2cnc(N3CC[C@H](F)C3)nc12 : 36
CN(C)CCN(C)c1ncc2ncnc(Nc3cc(C(=O)Nc4cc(C(C)(C)C)on4)ccc3Cl)c2n1 : 1
Cc1ccc(C(=O)NCc2cccc(C(C)(C)C)c2)cc1Nc1ncnc2cnc(N3CCCN(C)CC3)nc12 : 140
COCCN(C)c1ncc2ncnc(Nc3cc(C(=O)Nc4cc(C(C)(C)C)nn4C)ccc3C)c2n1 : 2
COc1ncc2ncnc(Nc3cc(C(=O)Nc4cc(N(C)CCN(C)C)cc(C(F)(F)F)c4)ccc3C)c2n1 : 2

Query: For the molecule shown here, Cc1ccc(C(=O)Nc2ccnc(C(C)(C)C)c2)cc1Nc1ncnc2cnc(N3CCC(CN4CCCC4)CC3)nc12 , give the reported IC50.
Result: 3

====

Property: pIC50; scope: individual molecules
Molecular target: B-Raf (V600E)-kinase (Homo sapiens (Human), UniProt P15056, V600E)
Assay: Kinase test B-RAF (V600E)
Type: biochemical
Settings: B-RAF (V600E) kinase test, 250 μM ATP
Conceptually, pIC50 converts a concentration in mol/L into minus its log10.

# count of solved cases: 4
Cc1ccc(C(=O)Nc2cc(C(C)(C)C)nn2C)cc1Nc1ncnc2cnc(N3CCOCC3)nc12 : 9.00
COCCN1CCN(c2ncc3ncnc(Nc4cc(C(=O)Nc5ccc(F)c(C(F)(F)F)c5)ccc4C)c3n2)CC1 : 9.00
COc1ccc(C(=O)Nc2ccc(OC)c(C(F)(F)F)c2)cc1Nc1ncnc2cnc(N3CCN(C)CC3)nc12 : 8.22
Cc1ccc(NC(=O)c2cccc(C(F)(F)F)c2)cc1Nc1ncnc2c(N)nc(N3CCN(CC4CCN(C)CC4)CC3)nc12 : 8.40

Query: Test system B-Raf (V600E)-kinase (Homo sapiens (Human), UniProt P15056, V600E); read-out pIC50; what value for COc1ccc(NC(=O)c2ccc(C)c(Nc3ncnc4cnc(N5CCN(C6CCN(C)CC6)CC5)nc34)c2)cc1C(F)(F)F ?
Result: 8.40

Query: Test system B-Raf (V600E)-kinase (Homo sapiens (Human), UniProt P15056, V600E); read-out pIC50; what value for CCN1CCN(c2cc(C(=O)Nc3ccc(C)c(Nc4ncnc5cnc(N6CCOCC6)nc45)c3)cc(C(C)(C)C#N)c2)CC1 ?
Result: 8.70

Query: Test system B-Raf (V600E)-kinase (Homo sapiens (Human), UniProt P15056, V600E); read-out pIC50; what value for Cc1ccc(C(=O)Nc2cc(C(F)(F)F)ccn2)cc1Nc1ncnc2cnc(N3CCCC3)nc12 ?
Result: 8.70

====

Target: B-Raf (V600E)-kinase (Homo sapiens (Human), UniProt P15056, V600E)
Experiment: Kinase test B-RAF (V600E)
Assay type: biochemical
Settings: B-RAF (V600E) kinase test, 250 μM ATP
Property: pIC50; scope: individual compounds
Conceptually, pIC50 converts a concentration in mol/L into minus its log10.

Cn1nc(C(C)(C)C)cc1NC(=O)c1ccc(F)c(Nc2ncnc3cnc(NC4CCOC4)nc23)c1 (stereo not shown) [III-387] : 8.70
COc1ncc2ncnc(Nc3cc(C(=O)Nc4cc(N5CCN(C(C)C)CC5)cc(C(F)(F)F)c4)ccc3C)c2n1 [III-567] : 8.70
COCCN(C)c1ncc2ncnc(Nc3cc(C(=O)Nc4cc(C(C)(C)C)on4)ccc3OC)c2n1 [III-80] : 8.22
Cc1ccc(C(=O)Nc2cccc(C(C)(C)C#N)c2)cc1Nc1ncnc2cnc(NCc3ccccc3)nc12 [III-430] : 8.15
Cc1ccc(C(=O)Nc2cc(C(C)(C)C)n[nH]2)cc1Nc1ncnc2c(N)nc(N3C[C@@H]4C[C@H]3CN4)nc12 [I-69] : 8.70
Cc1ccc(C(=O)Nc2cc(C(C)(C)C)n[nH]2)cc1Nc1ncnc2cnc(N3CCN(C)CC3)nc12 [III-448] : 8.10
CN1CCN(c2ncc3ncnc(Nc4cc(C(=O)Nc5cc(C(C)(C)C)on5)ccc4F)c3n2)CC1 [III-318] : 8.70
COc1ccc(NC(=O)c2ccc(C)c(N(C)c3ncnc4cnc(N5CCOCC5)nc34)c2)cc1C(F)(F)F [III-584] : 7.74

Query: For the compound shown here, COc1ccc(NC(=O)c2ccc(F)c(Nc3ncnc4cnc(NCCN(C)C)nc34)c2)cc1C(F)(F)F [III-39] , give the reported pIC50.
Result: 8.70

Query: For the compound shown here, Cc1ccc(C(=O)Nc2cc(OCCN(C)C)cc(C(F)(F)F)c2)cc1Nc1ncnc2cnc(N3CCCC3)nc12 [III-150] , give the reported pIC50.
Result: 8.70

Query: For the compound shown here, Cc1ccc(C(=O)Nc2cc(N3CCN(C)CC3)c(F)c(C(F)(F)F)c2)cc1Nc1ncnc2cnc(NC3CCOC3)nc12 (stereo not shown) [III-506] , give the reported pIC50.
Result: 8.40

Query: For the compound shown here, Cc1ccc(C(=O)Nc2ccc3c(c2)C(C)(C)C(=O)N3CCN2CCCC2)cc1Nc1ncnc2cnc(N3CCCN(C)CC3)nc12 [III-252] , give the reported pIC50.
Result: 8.10

Query: For the compound shown here, Cc1ccc(C(=O)Nc2cc(N(C)CCN(C)C)cc(C(F)(F)F)c2)cc1Nc1ncnc2cnc(N3CCCC3)nc12 [III-440] , give the reported pIC50.
Result: 6.57

Query: For the compound shown here, CC(C)(C)c1cc(NC(=O)c2ccc(F)c(Nc3ncnc4cnc(NC5CCOC5)nc34)c2)no1 (stereo not shown) [III-381] , give the reported pIC50.
Result: 8.52

Query: For the compound shown here, Cc1ccc(C(=O)Nc2ccc(F)c(C(F)(F)F)c2)cc1Nc1ncnc2cnc(N3CCCC3)nc12 [III-265] , give the reported pIC50.
Result: 8.40

Query: For the compound shown here, COc1ccc(NC(=O)c2ccc(Cl)c(Nc3ncnc4cnc(N5CCCN(C)CC5)nc34)c2)cc1C(F)(F)F [III-7] , give the reported pIC50.
Result: 9.00

Query: For the compound shown here, CC(C)(C)c1cc(NC(=O)c2ccc(Cl)c(Nc3ncnc4cnc(N5CCOCC5)nc34)c2)no1 [III-75] , give the reported pIC50.
Result: 9.00

Query: For the compound shown here, Cc1ccc(C(=O)Nc2cc(N3CCCN(C)CC3)cc(C(F)(F)F)c2)cc1Nc1ncnc2cnc(N3CCOCC3)nc12 [III-463] , give the reported pIC50.
Result: 8.70

Query: For the compound shown here, Cc1ccc(C(=O)Nc2cc(C(C)(C)C)n[nH]2)cc1Nc1ncnc2cnc(N3CCN(CC4CCN(C)CC4)CC3)nc12 [III-418] , give the reported pIC50.
Result: 8.70

Query: For the compound shown here, CC(C)(C)c1cc(NC(=O)c2ccc(C(F)(F)F)c(Nc3ncnc4cnc(NCCN5CCOCC5)nc34)c2)no1 [III-66] , give the reported pIC50.
Result: 5.94

====

Biological target: B-Raf (V600E)-kinase (Homo sapiens (Human), UniProt P15056, V600E)
Experiment: Kinase test B-RAF (V600E)
Format: biochemical
Conditions: B-RAF (V600E) kinase test, 250 μM ATP
property: IC50

Query: For the molecule shown here, Cc1ccc(C(=O)NC2CCCCC2)cc1Nc1ncnc2cnc(N3CCCN(C)CC3)nc12 [III-183] , give the reported IC50.
Result: > 15000 nM

Query: For the molecule shown here, COc1ccc(NC(=O)c2ccc(C(F)(F)F)c(Nc3ncnc4cnc(N5CCCCC5)nc34)c2)cc1C(F)(F)F [III-48] , give the reported IC50.
Result: > 1000 nM

Query: For the molecule shown here, Cc1ccc(C(=O)Nc2cc(C(C)(C)C)on2)cc1Nc1ncnc2cnc(N3CCC(N4CCOCC4)CC3)nc12 [III-489] , give the reported IC50.
Result: 1 nM

Query: For the molecule shown here, Cc1ccc(C(=O)Nc2cccc(C(F)(F)F)c2)cc1Nc1ncnc2cnc(N3CC[C@H](F)C3)nc12 [III-287] , give the reported IC50.
Result: 1 nM

Query: For the molecule shown here, CN(C)CCN(C)c1ncc2ncnc(Nc3cc(C(=O)Nc4cc(C(C)(C)C)on4)ccc3F)c2n1 [III-316] , give the reported IC50.
Result: 3 nM

Query: For the molecule shown here, Cc1ccc(C(=O)Nc2cc(C(C)(C)C)on2)cc1Nc1ncnc2cnc(N3C[C@@H](C)O[C@@H](C)C3)nc12 [III-368] , give the reported IC50.
Result: 14 nM

Query: For the molecule shown here, CCN1CCN(c2ncc3ncnc(Nc4cc(C(=O)Nc5ccc(OC)c(C(F)(F)F)c5)ccc4C)c3n2)CC1 [III-561] , give the reported IC50.
Result: 9 nM
